Tested on: Jurkat
Assay: Inhibition of production of beta-galactosidase thymidine kinase RGA in Jurkat cells
Format: functional, cell-based
Settings: Homo sapiens
Entries and their pIC50
Units for pIC50: none; it is -log10 of a concentration expressed in mol/L.

Illustrative cases are given below, each with its answer.
compound | readout_kind | value_reported
CN(C)C(=O)C1C(C(=O)O)C2CC[C@H]1O2 (some centres undefined) | pIC50 | 4.00
O=C(O)[C@@H]1[C@H](C(=O)O)[C@H]2CC[C@@H]1O2 | pIC50 | 4.38

Could you now consider this next compound?
Q: Need pIC50, item O=C1OC(=O)C2C3CCC(O3)C12 (centres undefined)
Result: 4.00

----------
Tested on: Jurkat
Assay: Inhibition of production of beta-galactosidase IL-2 RGA in Jurkat cells
Assay type: functional, cell-based
Details: Homo sapiens
readout_kind: pIC50
Units for pIC50: none; it is -log10 of a concentration expressed in mol/L.

compound | value_reported
CN(C)C(=O)C1C(C(=O)O)C2CC[C@H]1O2 (some centres undefined) | 5.33

Could you now consider this next compound?
Q: Field: pIC50 (Jurkat). Entry: C/C=C/C[C@@H](C)[C@@H](O)[C@H]1C(=O)N[C@@H](CC)C(=O)N(C)CC(=O)N(C)[C@@H](CC(C)C)C(=O)N[C@@H](C(C)C)C(=O)N(C)[C@@H](CC(C)C)C(=O)N[C@@H](C)C(=O)N[C@H](C)C(=O)N(C)[C@@H](CC(C)C)C(=O)N(C)[C@@H](CC(C)C)C(=O)N(C)[C@@H](C(C)C)C(=O)N1C
Result: 8.10

----------
Experiment: Exogenous inhibition of Serine/threonine protein phosphatase 1 (PP1)
Design: species or system Homo sapiens
Entries and their log10 of IC50
Friendly reminder: values = log10 of IC50, unit µM.

Illustrative cases are given below, each with its answer.
compound | log10 of IC50
C=C1[C@@H](O)[C@@H]2O[C@]3(CC[C@H](/C=C/[C@@H](C)[C@@H]4CC(C)=C[C@@]5(O[C@H](C[C@@](C)(O)C(=O)O)CC[C@H]5O)O4)O3)CC[C@H]2O[C@@H]1[C@@H](O)C[C@H](C)[C@H]1O[C@@]2(CCCCO2)CC[C@H]1C | -2.52
CC1(C(=O)O)C2CCC(O2)C1(C)C(=O)O (stereo not given) | -0.22
COC[C@@H]([C@H](O)[C@H](O)C(=O)NCC[C@H](C)c1nc(/C=C/C[C@@H]2O[C@]3(C[C@@H](O)[C@@H]2C)O[C@H]([C@H](C[C@H](O)[C@H](C)[C@H](O)[C@H](C)/C=C(C)/C(C)=C/C=C/C(C)=C\C#N)OC)[C@H](OP(=O)(O)O)C3(C)C)co1)N(C)C | -3.52

Q: Need log10 of IC50, item C[C@@]12C(=O)OC(=O)[C@]1(C)[C@H]1CC[C@@H]2O1
Result: -0.30

Q: Need log10 of IC50, item CO[C@H]([C@H](O)CC(=O)[C@@H](C)[C@@H](O)CC[C@@H](C)[C@@H]1O[C@]2(CC[C@@H](C)[C@H](CC[C@H](C)C(C)=O)O2)CC[C@@H]1C)[C@H](OC(=O)C[C@@H](O)C1=C(C)C(=O)OC1=O)C(C)C
Result: -3.15

Q: Need log10 of IC50, item O=C(O)C1C2C[C@H](COC(=O)C3C[C@H]3c3ccccc3)[C@@H](O2)C1C(=O)O (stereo not given in full)
Result: 0.60

Q: Need log10 of IC50, item C[C@@](O)(/C=C/[C@H]1CC=CC(=O)O1)[C@@H](C[C@@H](O)\C=C/C=C\C=C\CO)OP(=O)(O)O
Result: 2.12

Q: Need log10 of IC50, item C/C=C1/C(=O)C[C@@H](C(=O)O)[C@H](C)C(=O)N[C@@H](C(C)C)C(=O)N[C@@H](/C=C/C(C)=C/[C@H](C)[C@H](Cc2ccccc2)OC)[C@H](C)C(=O)N[C@@H](C(=O)O)CCC(=O)N1C
Result: -2.74

Q: Need log10 of IC50, item C[C@]12C(=O)OC(=O)[C@H]1C1CC[C@H]2O1
Result: -0.15

----------
Entries and their pIC50
Experiment: Exogenous inhibition concentration of Serine/threonine protein phosphatase 2A (PP2A)
Units for pIC50: none; it is -log10 of a concentration expressed in mol/L.

Illustrative cases are given below, each with its answer.
molecule | value_reported
CC(=O)OC(C)(C)[C@H]1CC[C@](C)([C@@H](O)CC[C@](C)(O)[C@H]2CC[C@H]3O[C@@H]([C@]4(C)CC[C@@H](Br)C(C)(C)O4)CC[C@]3(C)O2)O1 | 5.40
COC[C@@H]([C@H](O)[C@H](O)C(=O)NCC[C@H](C)c1nc(/C=C/C[C@@H]2O[C@]3(C[C@@H](O)[C@@H]2C)O[C@H]([C@H](C[C@H](O)[C@H](C)[C@H](O)[C@H](C)/C=C(C)/C(C)=C/C=C/C(C)=C\C#N)OC)[C@H](OP(=O)(O)O)C3(C)C)co1)N(C)C | 9.70
C[C@]12C(=O)OC(=O)[C@H]1C1CC[C@H]2O1 | 6.92
CC1(C(=O)O)C2CCC(O2)C1(C)C(=O)O (stereo not given) | 7.30

Could you now consider this next molecule?
Q: Need pIC50, item CO[C@H]([C@H](O)CC(=O)[C@@H](C)[C@@H](O)CC[C@@H](C)[C@@H]1O[C@]2(CC[C@@H](C)[C@H](CC[C@H](C)C(C)=O)O2)CC[C@@H]1C)[C@H](OC(=O)C[C@@H](O)C1=C(C)C(=O)OC1=O)C(C)C
Result: 9.15

----------
Experiment: Inhibition of growth after 72 hr continuous exposure to test compounds in Ovarian A2780 tumor cell lines
Type: functional
Conditions: A2780, 72 h
Entries and their GI50
Quote the value and follow it with the unit of measurement.

Illustrative cases are given below, each with its answer.
compound | readout_kind | value_reported
CCOC(=O)C1C(C(=O)O)C2CC[C@H]1O2 (stereo partly drawn) | GI50 | 185 µM
COC(=O)C1C(C(=O)O)C2CC[C@H]1O2 (stereo partly drawn) | GI50 | 100 µM
O=C1OC(=O)C2C3CCC(O3)C12 (stereo not drawn) | GI50 | 50 µM
CCCOC(=O)C1C(C(=O)O)C2CC[C@H]1O2 (stereo partly drawn) | GI50 | 110 µM
COC1OC(=O)[C@H]2[C@@H]1[C@@H]1CC[C@H]2O1 (stereo partly drawn) | GI50 | 538 µM
C[C@@]12C(=O)OC(=O)[C@]1(C)[C@H]1CC[C@@H]2O1 | GI50 | 10 µM
CCOC1OC(=O)[C@H]2[C@@H]1[C@@H]1CC[C@H]2O1 (stereo partly drawn) | GI50 | 100 µM

Could you now consider this next compound?
Q: Need GI50, item CCCOC1OC(=O)[C@H]2[C@@H]1[C@@H]1CC[C@H]2O1 (stereo partly drawn)
Result: 375 µM

----------
System: L1210
Experiment: Reduction of tumor cell growth to 50% in Fostriecin analogues in L1210 Leukemia cell lines
Format: functional
Conditions: Mus musculus
readout_kind: GI50 (nM)
Numbers only; they are read as nM.

compound | tested_on | unit_descriptor | GI50
C[C@@](O)(/C=C/[C@H]1CC=CC(=O)O1)[C@H](O)C[C@@H](O)\C=C/C=C\C=C\CO | L1210 | nM | 2500
C[C@@](O)(/C=C/[C@H]1CC=CC(=O)O1)[C@@H](C[C@@H](O)\C=C/C=C\C=C\CO)OP(=O)(O)O | L1210 | nM | 210
C/C=C/C=C\C=C/[C@H](O)C[C@@H](OP(=O)(O)O)[C@](C)(O)/C=C/[C@H]1CC=CC(=O)O1 | L1210 | nM | 220

Could you now consider this next compound?
Q: Need GI50, item C[C@@](O)(/C=C/[C@@H]1OC(=O)C=CC1O)[C@@H](C[C@@H](O)\C=C/C=C\C=C\CO)OP(=O)(O)O (stereo not given in full)
Result: 830

----------
Biological target: Serine-threonine protein phosphatase 2A regulatory subunit (Gallus gallus, UniProt Q8AWE3)
Sequence (Q8AWE3 whole entry): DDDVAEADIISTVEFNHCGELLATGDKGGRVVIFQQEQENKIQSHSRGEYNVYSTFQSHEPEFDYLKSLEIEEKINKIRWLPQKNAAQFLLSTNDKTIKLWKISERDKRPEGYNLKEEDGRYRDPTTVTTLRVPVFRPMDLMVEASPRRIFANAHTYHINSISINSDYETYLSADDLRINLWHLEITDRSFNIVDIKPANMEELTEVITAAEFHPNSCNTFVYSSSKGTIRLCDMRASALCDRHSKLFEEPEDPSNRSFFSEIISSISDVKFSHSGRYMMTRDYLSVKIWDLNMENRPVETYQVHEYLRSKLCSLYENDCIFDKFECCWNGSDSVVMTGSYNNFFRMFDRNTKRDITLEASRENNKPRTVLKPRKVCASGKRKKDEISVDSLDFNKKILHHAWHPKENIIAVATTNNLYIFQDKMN
Experiment: Inhibition of Serine/threonine protein phosphatase 2A by anhydride modified Cantharidin analogues
readout_kind: IC50 (nM)
Numbers only; they are read as nM.

Q: Need IC50, item CCOC(=O)C1C(C(=O)O)C2CC[C@H]1O2 (stereo partly specified)
Result: 450

----------
System: HCT-8
Assay: Reduction of tumor cell growth to 50% in Fostriecin analogues in HCT-8 colon cancer cell lines
Format: functional
Settings: Homo sapiens
Output YES for records whose GI50 is lower than 4 µM, NO for records at or above 4 µM.

Example entries begin here.
compound | group
C[C@@](O)(/C=C/[C@H]1CC=CC(=O)O1)[C@H](O)C[C@@H](O)\C=C/C=C\C=C\CO | YES
C/C=C/C=C\C=C/[C@H](O)C[C@@H](OP(=O)(O)O)[C@](C)(O)/C=C/[C@H]1CC=CC(=O)O1 | YES
C[C@@](O)(/C=C/[C@H]1CC=CC(=O)O1)[C@@H](C[C@@H](O)\C=C/C=C\C=C\CO)OP(=O)(O)O [FOSTRIECIN] | YES
C[C@@](O)(/C=C/[C@@H]1OC(=O)C=CC1O)[C@@H](C[C@@H](O)\C=C/C=C\C=C\CO)OP(=O)(O)O (stereo not given in full) | NO

Q: Please determine if C[C@@](O)(/C=C/COC(=O)/C=C\CO)[C@@H](C[C@@H](O)\C=C/C=C\C=C\CO)OP(=O)(O)O is below 4 µM in terms of GI50.
Result: NO
